Target: furin, P09958;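 further: purified furin at 1:10 enzyme:substrate in 50 mM HEPES pH 7.5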
Sequence (P09958 whole entry): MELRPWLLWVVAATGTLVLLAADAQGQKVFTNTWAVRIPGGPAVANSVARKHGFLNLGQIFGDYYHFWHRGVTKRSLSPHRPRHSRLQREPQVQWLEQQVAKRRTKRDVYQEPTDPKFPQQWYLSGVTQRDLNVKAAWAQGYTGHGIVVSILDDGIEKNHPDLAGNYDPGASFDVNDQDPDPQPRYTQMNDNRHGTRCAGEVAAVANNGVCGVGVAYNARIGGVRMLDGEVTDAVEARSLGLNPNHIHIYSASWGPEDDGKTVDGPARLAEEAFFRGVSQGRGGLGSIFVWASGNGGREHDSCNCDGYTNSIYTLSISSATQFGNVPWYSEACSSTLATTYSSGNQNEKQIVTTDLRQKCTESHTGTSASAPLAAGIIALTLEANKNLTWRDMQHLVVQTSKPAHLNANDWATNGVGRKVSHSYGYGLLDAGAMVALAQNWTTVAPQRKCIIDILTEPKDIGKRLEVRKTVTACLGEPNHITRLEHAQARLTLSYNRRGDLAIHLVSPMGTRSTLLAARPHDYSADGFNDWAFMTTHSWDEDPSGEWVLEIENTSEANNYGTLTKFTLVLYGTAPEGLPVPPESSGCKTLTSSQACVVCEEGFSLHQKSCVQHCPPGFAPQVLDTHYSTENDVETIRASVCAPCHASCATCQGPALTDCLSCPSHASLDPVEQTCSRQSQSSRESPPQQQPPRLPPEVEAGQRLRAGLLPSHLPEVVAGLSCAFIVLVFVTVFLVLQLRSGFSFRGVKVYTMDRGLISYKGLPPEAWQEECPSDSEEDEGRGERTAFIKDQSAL
Experiment: furin cleavage Z-score vs untreated control; higher = more cleavage, active = 3.5 or more, inactive = 1 or less, 8 variable residues between constant flanks
Conditions: 15 min
This is one part of the list. How many sequences the whole screen found active is unknown.
For each record, write down the corresponding furin cleavage Z-score.
One number for each entry.

Observe how each entry below is paired with its result.
sequence content | furin cleavage Z-score
CARYISWCLWAGNASASA [HC579] | 0.138
CAEVPCHRPKAGNASASA [HC2414] | 0.536
CARPRRMTPFAGNASASA [FS-2744] | 4.44
CAGGWVAAQLAGNASASA [HC1067] | -1.6
CARFDRSVEKAGNASASA [FS-2013] | 0.744

Provide reported furin cleavage Z-score for each item, in the same order as listed.
1. CATLGRHRRIAGNASASA [FS-305]
2. CARFDRSSGPAGNASASA [FS-3220]

Result string:
4.75
1.66

The values you see were collected from the supplement of paper PMC3545927.
